Data provenance: PubChem BioAssay (NCI)

Quick reference: GI50 of the listed items.
tested on: SF-295 CNS; assay: NCI tumour cell line growth inhibition, 48 h

Below, 4 molecules whose answers are already recorded.
# molecule, readout label, assay result
data = [
    ("O=C1/C(=C/c2ccc(O)cc2)COc2ccc(-c3ccccc3)cc21", "GI50", "6.8 µM"),
    ("C[C@H]1[C@H](C)CC[C@]2(C(=O)O)CC[C@]3(C)C(=CC[C@@H]4[C@@]5(C)C/C(=C/c6cccnc6)[C@H](O)C(C)(C)[C@@H]5CC[C@]43C)[C@H]12", "GI50", "4.83 µM"),
    ("CCCCN(Cc1ccc(F)cc1)c1ccc(CO)c(Cl)c1", "GI50", "3.96 µM"),
    ("COc1cc(Nc2nc(N[C@H]3CCCC[C@@H]3N)nc3cc[nH]c(=O)c23)cc(OC)c1", "GI50", "1.5 µM"),
]

Now look at this entry.
For the molecule shown here, COc1ccc2c(c1)OC(N(C(C)=O)C(C)=O)=C(C#N)C2c1ccc(F)cc1 (stereo not given) , give the reported GI50.
2.83 µM

----------
test system: OVCAR-8 ovarian; test: NCI tumour cell line growth inhibition, 48 h
readout label: log10 of TGI (log10 of the value in µM)
A value of 2 here means TGI of 100 in µM, since values are log10.

# compound, tested system, log10 of TGI
records = [
    ("ClCc1c(Cl)c(Cl)c(Cl)c(CCl)c1Cl", "OVCAR-8 ovarian", 0.78),
    ("Clc1ccc(C2NN=C3c4ccccc4OCC32)cc1 (configuration not stated)", "OVCAR-8 ovarian", 1.74),
    ("COCc1cc2c(cc1/C=C/[N+](=O)[O-])OCO2", "OVCAR-8 ovarian", 1.74),
    ("COc1ccc(-c2cncn2-c2ccc(OC)cc2)cc1", "OVCAR-8 ovarian", 1.72),
    ("CN(C)c1ccc2cc(-c3ccccc3F)c(N)nc2c1", "OVCAR-8 ovarian", 1.20),
]

Now look at this entry.
For the compound shown here, CSC1=C(c2ccc(Cl)cc2)SC(N2CCCCC2)N1c1ccc([N+](=O)[O-])cc1 (configuration not stated) , give the reported log10 of TGI.
1.97

----------
test system: UO-31 renal; experiment: NCI tumour cell line growth inhibition, 48 h; in the data active = GI50 below about 0.43 µM; inactive = the rest
Respond only with the outcome that fits, drawn from yes (1) = active, no (0) = inactive

Some entries whose results are on file:
# compound, answer label
data = [
    ("C[C@@H]1COCCN1c1cc(C2(S(C)(=N)=O)CC2)nc(-c2ccnc3[nH]ccc23)n1 (some centres undefined)", "no (0)"),
    ("Fc1cccc(COc2ccc(Nc3ncnc4cc(-c5ccc[nH]5)sc34)cc2Cl)c1", "yes (1)"),
    ("COc1cc(-c2cn(-c3ccc(Cl)cc3)c(C)c2C(=O)C(F)(F)F)cc(OC)c1OC", "no (0)"),
]

Kindly review the next compound as well.
Lab log entry: Clc1nc(Cl)c2c(ncn2C/C=C\Cn2cnc3c(Cl)nc(Cl)nc32)n1 — outcome as called in the assay?
no (0)

----------
Quick reference: TGI of the listed items.
tested on: HOP-92 NSCLC; experiment: NCI tumour cell line growth inhibition, 48 h
Give the value in µM but do not write µM after it.

Below, 3 compounds whose answers are already recorded.
# compound, unit name, TGI
records = [
    ("O=C(N/N=C\\c1ccc2ccccc2c1)Nc1ccc([N+](=O)[O-])cc1", "µM", 38.5),
    ("COC(=O)c1c(C)cccc1CC1Cc2c(C)cccc2C1=O (stereo not given)", "µM", 70.9),
    ("C[C@H]1[C@H](C)CC[C@]2(C(=O)O)CC[C@]3(C)C(=CC[C@@H]4[C@@]5(C)C/C(=C/c6cccnc6)[C@H](O)C(C)(C)[C@@H]5CC[C@]43C)[C@H]12", "µM", 67.7),
]

Hello, I am looking for reported TGI with HOP-92 NSCLC for Cn1c(-c2ccc(/C=N\N3CCN(/N=C/c4ccc(-c5c[n+]6ccccc6n5C)cc4)CC3)cc2)c[n+]2ccccc12 . Could you help?
84.6

----------
test system: HL-60(TB) leukemia; experiment: NCI tumour cell line growth inhibition, 48 h
readout label: TGI (µM)
Give the value in µM but do not write µM after it.

# molecule, unit name, assay result
records = [
    ("CCCCN(Cc1ccc(F)cc1)c1ccc(CO)c(Cl)c1", "µM", 34),
    ("Cn1c2ccccc2c(=NNc2ccc(C(=O)O)cc2)c2ccccc21", "µM", 48.6),
    ("COc1ccc(NC(=O)c2cc(OC)c(OC)c(OC)c2)cc1", "µM", 68),
    ("O=C(CCl)N1c2ccccc2Sc2c1ccc1ccccc21", "µM", 8.98),
]

For the molecule shown here, CC(C)C[P+](c1ccccc1)(c1ccccc1)c1ccccc1 , give the reported TGI.
24

Also CC1S(=O)(=O)OCCOS1(=O)=O , if possible.
87.1

----------
tested on: HOP-62 NSCLC; assay: NCI tumour cell line growth inhibition, 48 h
readout label: TGI

# compound, tested system, readout label, assay result
data = [
    ("CSC1=C(c2ccc(Cl)cc2)SC(N2CCCCC2)N1c1ccc([N+](=O)[O-])cc1 (configuration not stated)", "HOP-62 NSCLC", "TGI", "41.8 µM"),
]

For the compound shown here, CC1(C)N=C(N)N=C(N)N1c1cccc(OCCOc2ccc([N+](=O)[O-])cc2)c1 , give the reported TGI.
> 100 µM

Also CCCCOC(=O)C(O)Cc1ccoc1 (configuration not stated) , if possible.
> 100 µM

Also C#C[C@]1(O)CC[C@H]2[C@@H]3CCc4cc(OC(=O)c5cccc6cc7ccccc7nc56)ccc4[C@H]3CC[C@@]21C , if possible.
> 100 µM

Also NCc1ccc(C(=O)O)cc1 , if possible.
> 100 µM

Also CCC12CCCC(=O)N1C(CO)C(c1ccccc1)O2 (configuration not stated) , if possible.
> 100 µM

----------
test system: SNB-75 CNS; assay: NCI tumour cell line growth inhibition, 48 h
Quick reference: TGI of the listed items.

Below, 6 compounds whose answers are already recorded.
# compound, TGI
measured = [
    ("CC[C@H](CC#N)OC(=O)N[C@@H](C)c1cccc(NC(=O)Nc2ccc(-c3cnco3)c(OC)c2)c1", "27.8 µM"),
    ("c1cc2c(c(-c3c4ccccc4nc4ccccc34)c1)CC1(CC2)OCCO1", "> 100 µM"),
    ("Clc1nc(Cl)c2ncn(Cc3ccc(COc4cccc(OCc5ccc(Cn6cnc7c(Cl)nc(Cl)nc76)cc5)c4)cc3)c2n1", "> 100 µM"),
    ("CC1=C(O)C(=O)C2C(=O)C1C(C)C2c1ccc(Cl)cc1 (stereo unspecified)", "> 100 µM"),
    ("CC(=O)c1cc([N+](=O)[O-])ccc1OCC(=O)O", "> 100 µM"),
    ("COc1ccc2c(c1)OC(N(C(C)=O)C(C)=O)=C(C#N)C2c1ccc(F)cc1 (stereo unspecified)", "> 100 µM"),
]

For the compound shown here, COC(=O)CNC(=O)[C@@H](OC)[C@@H]1Cc2cc3cc(OC4CC(OC5CC(O)C(O)C(C)O5)C(O)C(C)O4)c(C)c(O)c3c(O)c2C(=O)[C@H]1OC1CC(OC2CC(OC3CC(C)(O)C(O)C(C)O3)C(O)C(C)O2)C(O)C(C)O1 (stereo partly specified) , give the reported TGI.
0.9 µM

Also O=c1oc2ccccc2n1CCN1CCCCC1 , if possible.
> 100 µM

Also C=C1C(=O)OC2C1CC(O)/C(C)=C\CCC1(C)OC21 (stereo unspecified) , if possible.
> 100 µM

Also COc1ccc(-c2cc(N3CCN(c4ccccc4)CC3)c(C#N)c(=O)o2)cc1 , if possible.
31.7 µM

Also COCc1cc2c(cc1/C=C/[N+](=O)[O-])OCO2 , if possible.
31.9 µM

Also C[C@H]1[C@H](C)CC[C@]2(C(=O)O)CC[C@]3(C)C(=CC[C@@H]4[C@@]5(C)C/C(=C/c6cccnc6)[C@H](O)C(C)(C)[C@@H]5CC[C@]43C)[C@H]12 , if possible.
> 100 µM

Also CCOc1ccc(NCc2cc(OC)c(OC)c(OC)c2)cc1 , if possible.
> 100 µM

Also CCOC(=O)C(=O)Nc1c(C)cccc1C , if possible.
> 100 µM

Also C[C@@H]1CN(CC(=O)N2CC(C)(C)c3nc(CO)c(Cc4ccc(F)cc4)cc32)[C@@H](CN2CCOC[C@H]2C)CN1 , if possible.
> 100 µM

Also CCCCn1cnc2c(SC)ncnc21 , if possible.
> 100 µM

Also Cn1ccnc1C(=O)/C=C/c1ccc(CC(=O)Nc2ccccc2)cc1 , if possible.
> 25 µM

Also NC(C(=O)[O-])C(=O)[O-].NC1CCCCC1N.[Pt+4] , if possible.
> 100 µM

Also C1=C\CCCCN2C[C@H]3CCCC/C=C\CCCCN4CC[C@@H]([C@H](CCCCCC/1)C4)[C@H](C3)C2 , if possible.
5.46 µM

Also COC(=O)c1c(C)cccc1CC1Cc2c(C)cccc2C1=O (stereo unspecified) , if possible.
> 100 µM

Also CC12CCC(=O)C=C1CCC1C2C(O)CC2(C)C(c3csc(N)n3)CCC12 (stereo unspecified) , if possible.
> 100 µM
